- Tested on: SUIT-2
- ASSAY_METHOD_TEXT: cells
- Parameters: CellTiter-Glo 2.0 luminescence proliferation/viability assay, single agents, human tumour cell line panel
- CONDITION_DESCRIPTION: SUIT-2, 96 h; single agent; read-out: IC50 SMACm
- Procedure: The effect of BETi, SMACm alone or in combination cell viability was determined using a 96-h CellTiter-Glo2.0 proliferation assay. Cells were seeded in assay plates and placed at 37°C with 5% CO2 for twenty-four hours before treatment. […] Cell viability was measured by luminescence analysis using luminescence read on Envision plate readers (PerkinElmer). […] Cell viability was measured by luminescence analysis using luminescence read on Tecan Plate reader. […]
pIC50: −log10 of the molar value.
PROPERTY_LABEL: pIC50

> print(dat)
                              smiles.string  property.label  endpoint.result
1  CN[C@@H](C)C(=O)Nc1ccc(-c2c(-c3cccnc3OC)nc3cc(C)ccn23)c(C#Cc2ccc3c(C)nccc3c2)n1           pIC50             5.32

* * *

- Test system: C106
- ASSAY_METHOD_TEXT: cells
- Parameters: CellTiter-Glo 2.0 luminescence proliferation/viability assay, single agents, human tumour cell line panel
- CONDITION_DESCRIPTION: 96 h; single agent; read-out: IC50 SMACm
pIC50: −log10 of the molar value.
PROPERTY_LABEL: pIC50

> print(dat)
                              smiles.string  property.label  endpoint.result
1  CN[C@@H](C)C(=O)Nc1ccc(-c2c(-c3cccnc3OC)nc3cc(C)ccn23)c(C#Cc2ccc3c(C)nccc3c2)n1           pIC50             5.79

* * *

- Tested on: COLO94H
- ASSAY_METHOD_TEXT: cells
- Design: CellTiter-Glo 2.0 luminescence proliferation/viability assay, single agents, human tumour cell line panel
- CONDITION_DESCRIPTION: 96 h; single agent; read-out: IC50 SMACm
PROPERTY_LABEL: IC50 (µM)

> print(dat)
                              smiles.string  endpoint.result
1  CN[C@@H](C)C(=O)Nc1ccc(-c2c(-c3cccnc3OC)nc3cc(C)ccn23)c(C#Cc2ccc3c(C)nccc3c2)n1             4.69
